- Test system: wheat
- Protocol Details: Phytotoxicity to host plant in wheat leaf rust test (rating 0-2)
- Type: in vivo
- Set-up: key: 0: indicates no phytotoxicity; 1: indicates that the degree of phytotoxicity was sufficient to make the plant commercially worthless; 2: indicates that the plant was killed
- Stated Conditions: 300 ppm
Property: Phytotoxicity
The reply should be a number, written without any unit.

Past entries and their recorded results:
INSERT INTO assay_data (compound, experimental_value) VALUES
  ('[F][Sn]([CH]1CCCC1)([CH]1CCCC1)[CH]1CCCC1 [Tricyclopentyltin fluoride]', 0),
  ('[OH][Sn]([c]1ccccc1)([c]1ccccc1)[c]1ccccc1 [Triphenyltin hydroxide]', 0),
  ('[OH][Sn]([CH]1CCCC1)([CH]1CCCC1)[CH]1CCCC1 [Tricyclopentyltin hydroxide]', 0);

Please examine the following record next.
## Input Given the compound [Cl][Sn]([CH]1CCCC1)([CH]1CCCC1)[CH]1CCCC1 [Tricyclopentyltin chloride] , what is its reported Phytotoxicity?
## Output 2
